test system: TYK2(JH2domain-pseudokinase); details: concentration: 1 μM, replicates: in singlicate; n = 1;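 also: KINOMEscan kinase panel screen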
Would you kindly list %Inh for each of these compounds?
Quick reminder: number only, in %, skip the unit.

query: For the compound Cc1c(Cn2c(C)nn3c(=O)cc(N4CCO[C@H](C)C4)nc23)cccc1C(F)(F)F [GSK2373690] , give its reported %Inh.
result: 0

query: For the compound COc1cc(Nc2nccc(N3CCC(NC(=O)C4COc5ccccc5O4)C3)n2)cc(OC)c1OC (stereo not drawn) [GSK1379761] , give its reported %Inh.
result: 29

query: For the compound Nc1nc(N)c2nc(-c3ccccc3)[nH]c2n1 [SKF-12778] , give its reported %Inh.
result: 74

query: For the compound `CCCNC(=O)Nc1ccc(Oc2ncnc3ccn(C)c23)cc1` , give its reported %Inh.
result: 22

query: For the compound COc1cccc(C2=C(Nc3cccc(C(=O)O)c3)C(=O)NC2=O)c1 [SB-390770] , give its reported %Inh.
result: 0

query: For the compound O=C(Nc1n[nH]c2nc(-c3ccccc3)c(Cl)cc12)C1CC1 [SB-734909] , give its reported %Inh.
result: 16

query: For the compound `CCC(=O)c1c(-c2ccccc2)c2cc(Cl)ccc2c(=O)n1Cc1cc(S(C)(=O)=O)n(CC(F)F)n1` , give its reported %Inh.
result: 0

query: For the compound CCS(=O)(=O)c1ccc(OC)c(Nc2ncc(-c3ccc(F)cc3)o2)c1.Cl [GW591947] , give its reported %Inh.
result: 0

query: For the compound `CCC(=O)c1c(-c2ccccc2)c2cc(Cl)ccc2c(=O)n1Cc1ccc(C(=O)O)cc1` , give its reported %Inh.
result: 0

---

test system: EPHA6; conditions: concentration: 1 μM, replicates: in singlicate; n = 1
Would you kindly list %Inh for each of these compounds?
Quick reminder: number only, in %, skip the unit.

query: For the compound CCS(=O)c1ccc(-c2coc3ccc(-c4nnc(C)o4)cc23)cc1 (centres unmarked) , give its reported %Inh.
result: 12

query: For the compound Cc1nnc(-c2ccc(C)c(-c3ccc(C(=O)O)cc3)c2)o1 [GW608005] , give its reported %Inh.
result: 9

query: For the compound CN1C(=O)C(Nc2cc(Cl)c(O)c(Cl)c2)=C(c2ccc(Cl)cc2)C1=O [SB-404321] , give its reported %Inh.
result: 0

query: For the compound `CCC(=O)c1c(-c2ccccc2)c2cc(Cl)ccc2c(=O)n1Cc1cc(S(C)(=O)=O)n(CC(N)=O)n1` , give its reported %Inh.
result: 0

query: For the compound `CCc1ccc(-c2ccc3c(c2)-c2nn(C)cc2S(=O)(=O)N3C)cc1` , give its reported %Inh.
result: 0

query: For the compound COc1ccc(-n2cnc3c(N)ncnc32)cc1 [SKF-97236] , give its reported %Inh.
result: 0

query: For the compound `CCC(=O)c1c(-c2ccccc2)c2cc(Cl)ccc2c(=O)n1Cc1cc(C(=O)NC2CC2)n(C)n1` , give its reported %Inh.
result: 38

query: For the compound `CCC(=O)c1c(-c2ccccc2)c2cc(Cl)ccc2c(=O)n1Cc1cc(S(C)(=O)=O)n(CCC(C)(C)O)n1` , give its reported %Inh.
result: 34

query: For the compound CN1C(=O)C(Nc2ccccc2)=C(c2ccccc2)C1=O [SB-300079] , give its reported %Inh.
result: 0

query: For the compound `Cn1c(=O)c(F)c(Nc2ccc(I)cc2F)c2c(=O)n(OC[C@H](O)CO)cnc21` , give its reported %Inh.
result: 12

query: For the compound `Cc1nc(N(C)[C@H]2CN(C(=O)CC#N)CC[C@H]2C)c2cc[nH]c2n1` , give its reported %Inh.
result: 0

query: For the compound Cc1nn2c(=O)cc(N3CCOCC3)nc2n1Cc1cccc(Cl)c1Cl [GSK2342769] , give its reported %Inh.
result: 18

query: For the compound `COc1ccc(-c2cc3c(C)nc(N)nc3n([C@H]3CC[C@H](O)CC3)c2=O)cn1` , give its reported %Inh.
result: 0

query: For the compound O=C(Nc1ccc2c(c1)OCO2)NC1CCN(c2ccnc(NCc3ccc(F)cc3)n2)CC1 [GSK1379859] , give its reported %Inh.
result: 8

---

system: ACVR2A; conditions: concentration: 1 μM, replicates: in singlicate; n = 1
Would you kindly list %Inh for each of these compounds?
Quick reminder: number only, in %, skip the unit.

query: For the compound `Nc1n[nH]c2nnc(-c3ccccc3)c(-c3ccccc3)c12` , give its reported %Inh.
result: 0

query: For the compound `COc1cc2ncn(-c3cc(OCCCc4ccccc4)c(C(N)=O)s3)c2cc1OC` , give its reported %Inh.
result: 0

query: For the compound `Cc1cccc(-c2nc(Nc3ccc4c(cnn4C)c3)c3ccccc3n2)n1` , give its reported %Inh.
result: 2

query: For the compound `COc1cc2ncn(-c3cc(OCc4ccncc4Br)c(C(N)=O)s3)c2cc1OC` , give its reported %Inh.
result: 8

query: For the compound `C[C@@H]1CC[C@H](C(=O)NC2CCCCC2)CN1c1cc(-c2ccc3c(N)n[nH]c3c2)nc(N)n1` , give its reported %Inh.
result: 0

query: For the compound `Cl.c1ccc(Cn2cnc3cc(Nc4ncnc5ccccc45)ccc32)cc1` , give its reported %Inh.
result: 0

query: For the compound `O=C(Nc1n[nH]c2cc(-c3ccccc3F)ccc12)C1CC1` , give its reported %Inh.
result: 38

query: For the compound `CC(C)(C)c1ccc(C(=O)Nc2cn3cc(-c4ccccc4)ccc3n2)cc1` , give its reported %Inh.
result: 0

query: For the compound `O=C(NCc1cccs1)c1cc(C(=O)c2c(Cl)cccc2Cl)c[nH]1` , give its reported %Inh.
result: 0

query: For the compound `CCC(=O)c1c(-c2ccccc2)c2cc(Cl)ccc2c(=O)n1Cc1ccc(C(=O)O)cc1` , give its reported %Inh.
result: 0

query: For the compound `Nc1ncnc2c1ncn2-c1cccc2ccccc12` , give its reported %Inh.
result: 0

query: For the compound `COc1cc2ncn(-c3cc(OCc4ccc(S(C)(=O)=O)cc4)c(C(N)=O)s3)c2cc1OC` , give its reported %Inh.
result: 0

query: For the compound `COC(=O)c1c(-c2ccccc2)c2cc(Br)ccc2c(=O)n1Cc1ccc(NC(=O)CCC(=O)O)cc1` , give its reported %Inh.
result: 0

query: For the compound `CCn1c(-c2nonc2N)nc2ccccc21` , give its reported %Inh.
result: 0

query: For the compound `CCCC(=O)Nc1n[nH]c2ncc(-c3cccc4ccccc34)cc12` , give its reported %Inh.
result: 0

query: For the compound `Cc1nn2c(=O)cc(N3CCOCC3)nc2n1Cc1cccc(Cl)c1Cl` , give its reported %Inh.
result: 0

query: For the compound `CCc1nc(-c2cccc(C)c2)c(-c2ccncc2)s1` , give its reported %Inh.
result: 5

query: For the compound COc1cc(Nc2nccc(N3CCC(NC(=O)C4COc5ccccc5O4)C3)n2)cc(OC)c1OC (stereo not shown) , give its reported %Inh.
result: 22

query: For the compound `COc1ccc(-c2cc3c(C)nc(N)nc3n([C@H]3CC[C@H](O)CC3)c2=O)cn1` , give its reported %Inh.
result: 0

query: For the compound `Nc1ncnc2c1ncn2-c1cccc(F)c1` , give its reported %Inh.
result: 0

query: For the compound `COc1cc2nccc(Nc3cccc(Oc4ccccc4)c3)c2cc1OC.Cl` , give its reported %Inh.
result: 0

query: For the compound `CCC(=O)c1c(-c2ccccc2)c2cc(Cl)ccc2c(=O)n1Cc1cc(C(=O)NC2CC2)n(C)n1` , give its reported %Inh.
result: 0

query: For the compound `COc1cc2ncn(-c3cc(OCc4ccncc4)c(C(N)=O)s3)c2cc1OC` , give its reported %Inh.
result: 0

query: For the compound `COc1cc(OC)cc(-c2cc3cnc(N)nc3nc2NC(=O)NC(C)(C)C)c1` , give its reported %Inh.
result: 0

query: For the compound `CCC(=O)c1c(-c2ccccc2)c2cc(Cl)ccc2c(=O)n1Cc1cc(S(C)(=O)=O)n(CCC(C)(C)O)n1` , give its reported %Inh.
result: 0

query: For the compound `Nc1nc(N)c2nc(-c3ccccc3)[nH]c2n1` , give its reported %Inh.
result: 27

query: For the compound `CCS(=O)(=O)c1ccc(OC)c(Nc2ncc(-c3ccc(F)cc3)o2)c1.Cl` , give its reported %Inh.
result: 0

query: For the compound `O=c1cc(N2CCOCC2)nc2n(Cc3ccc(F)c(Cl)c3)ccn12` , give its reported %Inh.
result: 0

query: For the compound `O=C(NCCNc1ccnc(Nc2ccc(F)cc2)n1)Nc1ccc2c(c1)OCO2` , give its reported %Inh.
result: 0

query: For the compound `Nc1n[nH]c2ncc(-c3ccccc3)cc12` , give its reported %Inh.
result: 0

query: For the compound `COc1ccc(-c2coc3ccc(-c4nnc(SCc5cccc(C#N)c5)o4)cc23)cc1` , give its reported %Inh.
result: 0

query: For the compound COc1ccc(Nc2nccc(N3CCC(NS(=O)(=O)c4ccc(NC(C)=O)cc4)C3)n2)cc1 (stereo not shown) , give its reported %Inh.
result: 32

query: For the compound `Cc1cccc(-c2cc(-c3c[nH]nc3-c3ccccn3)ccn2)c1` , give its reported %Inh.
result: 0

query: For the compound `CCc1ccc(-c2ccc3c(c2)-c2nn(C)cc2S(=O)(=O)N3C)cc1` , give its reported %Inh.
result: 21

query: For the compound `Fc1cccc(CSc2nnc(-c3ccc4c(c3)CCO4)o2)c1` , give its reported %Inh.
result: 0

query: For the compound `O=C1NC(=O)C(c2ccccc2)=C1Nc1cccc(O)c1` , give its reported %Inh.
result: 0

query: For the compound `Cc1nc(N(C)[C@H]2CN(C(=O)CC#N)CC[C@H]2C)c2cc[nH]c2n1` , give its reported %Inh.
result: 15
